The reported numbers originate from ChEMBL document CHEMBL4732195.

# Test system: Trichomonas vaginalis
# Assay protocol: Antimicrobial activity against Trichomonas vaginalis JH31A#4 trophozoites assessed as reduction in parasitic growth incubated for 24 hrs by resazurin dye based fluorescence assay
# Format: functional, organism-based
# Study conditions: JH31A#4, 24 h
pIC50: −log10 of the molar value.
We use 5 as the dividing line for pIC50: on or above the line is y, below is n.

A selection of reference data follows.
Record smiles | Assigned label
NCCCOc1nn(Cc2ccccc2)c2ccc([N+](=O)[O-])cc12 | n
O=[N+]([O-])c1ccc2c(c1)c(OCCBr)nn2Cc1ccccc1 | n
CN(C)CCCOc1nn(Cc2ccccc2)c2ccc([N+](=O)[O-])cc12 | n
NCCCCCOc1nn(Cc2ccccc2)c2ccc([N+](=O)[O-])cc12 | y
CNCCCCCOc1nn(Cc2ccccc2)c2ccc([N+](=O)[O-])cc12 | y
Cc1ncc([N+](=O)[O-])n1CCO | y
O=C1c2ccccc2C(=O)N1CCCOc1nn(Cc2ccccc2)c2ccc([N+](=O)[O-])cc12 | n
CN(C)CCOc1nn(Cc2ccccc2)c2ccc([N+](=O)[O-])cc12 | n

Please find the next compound below.
Given CNCCOc1nn(Cc2ccccc2)c2ccc([N+](=O)[O-])cc12 , state whether its pIC50 is at least 5.
n
